Source of measurements: patent US20040229242

- assay_system: T1, RNase H1 D94G/D134A mutant (Escherichia coli, UniProt P0A7Y4 SEQ:1-155)
- T1 chain: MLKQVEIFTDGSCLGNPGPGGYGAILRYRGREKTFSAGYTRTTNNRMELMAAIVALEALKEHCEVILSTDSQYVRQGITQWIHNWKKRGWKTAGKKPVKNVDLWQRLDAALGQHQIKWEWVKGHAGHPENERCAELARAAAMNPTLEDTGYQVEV
- assay_remarks: filter; 50 mM NaCl, 1 mM EDTA, HEPES pH 7.0, 25 C
- stated_conditions: label: 32P
As shown below, each of these binders has a reported Kd value.

- binder: "RNA:DNA#3 (DNA:RNA) RNA: AGUUCGACGAGCAUGGAGAGGUCAG DNA: CTGACCTCTCCATGCTCGTCGAACT"
  Kd, nM: 5.5
- binder: "RNA:DNA#2 (DNA:RNA) RNA: GGCGAACAGGACUGCGUAUGAUAGG DNA: CCTATCATACGCAGTCCTGTTCGCC"
  Kd, nM: 6
